test-protocol: blockers of DNA damage checkpoint Chk1 activation – imaging, HeLa, hydroxyurea, phospho-Chk1 antibody, percent positive cells, primary screen (AID 1186)
condition-notes: hydroxyurea-induced phospho-Chk1 immunofluorescence imaging, higher = more signal
recorded-metric: z-score
Give your answer as a number; write no unit.

O=C(CS)NCCCCCNC(=O)[C@@H]1C[C@@H]2C(=O)NCC(=O)N2[C@@H]1c1cccc(OCCO)c1 = -0.128

Problem: What does the record list as z-score for `C=CCOC(=O)[C@H]1[C@@H]2C(=O)O[C@@H](c3ccccc3)[C@@H](c3ccccc3)N2[C@@H](c2ccc(OCCOC(=O)[C@H]3C[C@H]4C(=O)N[C@@H](CCCCN(C)C)C(=O)N4[C@H]3c3cccc(OCCO)c3)cc2)[C@]12C(=O)Nc1ccc(I)cc12` ?
Solution: -0.187

Problem: What does the record list as z-score for CCCCCN1CC=CC23O[C@@H]4C=CCOC(=O)[C@@H]4[C@H]2C(=O)N(C(C)CO)[C@@H]3C1=O (some centres not stated) ?
Solution: 0.719

Problem: What does the record list as z-score for CN1C(=O)C2C=CC(C(O)c3ccccc3)N(N3CCCCC3)C2C1=O (configuration not stated) ?
Solution: 0.246

Problem: What does the record list as z-score for `O=C1O[C@H](c2ccccc2)[C@H](c2ccccc2)N2[C@H]1[C@@H](C(=O)N1CCN(c3ncccn3)CC1)[C@]1(C(=O)Nc3ccc(C#CC4=CCCCC4)cc31)[C@H]2c1ccccc1OCCO` ?
Solution: 0.28

Problem: What does the record list as z-score for `C=C(CCCC)/C(=C/C[C@@H](OC(C)=O)c1ccccc1OCCO)c1cc(C(=O)OC)ccc1OC` ?
Solution: -0.402

Problem: What does the record list as z-score for CCOC(=O)C1=CCC(c2ccc(F)cc2)N(S(=O)(=O)c2ccc(C)cc2)C1 (configuration not stated) ?
Solution: 0.447

Where do the numbers come from? From PubChem BioAssay.
